Target: T1, NtcA MIT9313 (Prochlorococcus sp. MIT9313, UniProt Q7TUN1 1-222)
T1 sequence: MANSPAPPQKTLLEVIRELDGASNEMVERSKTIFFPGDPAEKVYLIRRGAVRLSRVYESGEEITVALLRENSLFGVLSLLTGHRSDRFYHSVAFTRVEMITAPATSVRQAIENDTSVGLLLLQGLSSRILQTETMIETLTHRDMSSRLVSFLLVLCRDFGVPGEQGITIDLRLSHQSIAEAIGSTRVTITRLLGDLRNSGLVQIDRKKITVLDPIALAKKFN
Assay: ITC; saturating 2OG (Kd,eff = Kd/alpha, extrapolated from fit); ITC: 50 mM Hepes, 350 mM NaCl, pH 7.5, 25 C, 0-10 mM 2OG; SPR: Biacore X, CM5 with neutravidin, 25 C, buffer not given; EMSA: as Napolitano et al. 2012, 1 uM NtcA
Details: protein: recombinant; tags: His6 (pET-15b); chain copies: 2; blunt
parameterMeasured: Kd (nM)
Expressed in nM, but write only the number.

Provide one value: measured Kd of DNA1, glnA promoter MIT9313 wt (dsDNA) DNA 1: TAGAAGGTACCTGTTGCTACAAAAAG DNA 2: CTTTTTGTAGCAACAGGTACCTTCTA
60

Recorded values, source paper PMC5767323.
